biological target: Isoform 2 of Nuclear receptor ROR-alpha (Alpha-2) (Homo sapiens, UniProt P35398); test: activators of RORA nuclear receptor, dose response, cell-based, CHO-K1, Gal4-RORA LBD, luciferase luminescence (AID 681)
Sequence (P35398 as listed by the source): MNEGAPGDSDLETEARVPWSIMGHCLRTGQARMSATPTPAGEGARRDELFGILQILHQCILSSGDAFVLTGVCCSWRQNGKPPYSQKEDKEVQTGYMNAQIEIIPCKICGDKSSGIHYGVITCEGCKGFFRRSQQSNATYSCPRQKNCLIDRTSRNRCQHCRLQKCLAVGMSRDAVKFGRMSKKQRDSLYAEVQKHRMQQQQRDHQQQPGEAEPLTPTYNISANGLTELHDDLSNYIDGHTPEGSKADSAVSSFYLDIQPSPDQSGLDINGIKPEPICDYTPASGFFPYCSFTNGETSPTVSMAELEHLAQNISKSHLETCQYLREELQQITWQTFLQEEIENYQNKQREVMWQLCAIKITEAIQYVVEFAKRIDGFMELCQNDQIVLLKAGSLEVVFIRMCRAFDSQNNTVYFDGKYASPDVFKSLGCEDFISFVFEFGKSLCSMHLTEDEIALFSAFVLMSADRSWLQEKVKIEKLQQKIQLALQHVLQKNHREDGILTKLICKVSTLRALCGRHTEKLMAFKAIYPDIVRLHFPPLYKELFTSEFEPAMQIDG
METRIC: EC50

- CCOc1ccc2nc(N3CCC(C(=O)N4CCN(c5ccccn5)CC4)CC3)sc2c1: > 3.67 µM
- COC(=O)c1c(NC(=O)CC2SCC(C(=O)OC)NC2=O)sc2c1CCCC2 (stereo not drawn): > 99 µM
- CCN(CCCNC(=O)c1cn(CC)c2ccc(S(=O)(=O)N(C)C)cc2c1=O)c1cccc(C)c1: > 99 µM

response.value for CCn1c(-c2ccc(N(C)C)cc2)nc2ccccc21 (field: EC50) = 0.823 µM

response.value for Oc1ccc(Cl)cc1C=Nc1nc2ccccc2[nH]1 (field: EC50) = > 99 µM

response.value for CCOC(=O)c1ccccc1NC(=O)CSc1nnnn1C1CCCCC1 (field: EC50) = > 99 µM

response.value for CCn1c(Cn2nnc(-c3ccccc3)n2)nnc1SCC(=O)Nc1ccc(C(C)=O)cc1 (field: EC50) = > 99 µM

response.value for CN1CCN(S(=O)(=O)c2ccc(Br)s2)CC1 (field: EC50) = > 99 µM
